target: T1, human pro-myostatin (human, UniProt O14793 24-375, biotinylated (in the SPR assay)); assay: SPR Biacore 8K, biotin-antigen captured
T1 construct: Disulfide-linked homodimer; also called proGDF8 (human)
result_type: koff (s⁻¹)
Answer format: numeric, s⁻¹ implied, no suffix.

Example cases with answers are listed next.
Ab138 (antibody, human IgG4 S228P, kappa, V domains shown) VH: EVQLVESGGGLVQPGGSLRLSCAASGFTFTSYGMSWVRQAPGKGLELVASITGSKGETYYPDSVKGRFTISRDNAKNSLYLQMNSLRAEDTAVYYCARDLLVRFLEWSHYYGMDVWGQGTTVTVSS VL: DIVMTQSPLSLPVTPGEPASISCRSSQSLLHSSGHNFLHWYLQKPGQSPQLLIYETSNRAPGIPDRFSGSGSGTDFTLKISRVEAEDVGVYYCQQATQFPRPFGGGTKVEIKR ... 0.000577
Ab128 (antibody, human IgG4 S228P, kappa, V domains shown) VH: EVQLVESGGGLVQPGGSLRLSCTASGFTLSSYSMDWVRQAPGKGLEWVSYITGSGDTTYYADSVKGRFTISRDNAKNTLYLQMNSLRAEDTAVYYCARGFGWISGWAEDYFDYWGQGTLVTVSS VL: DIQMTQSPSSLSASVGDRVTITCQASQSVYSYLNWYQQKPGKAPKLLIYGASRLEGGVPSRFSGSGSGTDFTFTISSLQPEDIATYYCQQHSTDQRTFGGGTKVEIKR ... 0.000463
Ab115 (antibody, human IgG4 S228P, kappa, V domains shown) VH: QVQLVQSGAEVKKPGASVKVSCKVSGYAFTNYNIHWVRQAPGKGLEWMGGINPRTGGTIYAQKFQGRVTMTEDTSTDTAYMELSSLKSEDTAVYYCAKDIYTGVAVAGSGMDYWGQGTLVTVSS VL: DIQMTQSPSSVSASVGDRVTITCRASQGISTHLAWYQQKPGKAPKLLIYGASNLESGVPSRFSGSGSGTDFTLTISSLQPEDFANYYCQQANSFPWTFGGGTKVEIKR ... 0.00123

What the record says about Ab112 (antibody, human IgG4 S228P, kappa, V domains shown) VH: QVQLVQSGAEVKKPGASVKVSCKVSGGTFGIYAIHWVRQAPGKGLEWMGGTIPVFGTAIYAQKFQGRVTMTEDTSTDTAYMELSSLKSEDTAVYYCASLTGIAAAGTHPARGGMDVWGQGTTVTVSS VL: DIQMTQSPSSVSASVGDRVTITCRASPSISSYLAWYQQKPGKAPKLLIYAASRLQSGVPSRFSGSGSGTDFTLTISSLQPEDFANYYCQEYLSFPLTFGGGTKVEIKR : koff is 0.000122

What the record says about Ab121 (antibody, human IgG4 S228P, kappa, V domains shown) VH: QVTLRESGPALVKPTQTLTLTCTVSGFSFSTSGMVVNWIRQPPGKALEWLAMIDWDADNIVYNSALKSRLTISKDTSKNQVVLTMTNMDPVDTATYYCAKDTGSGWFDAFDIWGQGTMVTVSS VL: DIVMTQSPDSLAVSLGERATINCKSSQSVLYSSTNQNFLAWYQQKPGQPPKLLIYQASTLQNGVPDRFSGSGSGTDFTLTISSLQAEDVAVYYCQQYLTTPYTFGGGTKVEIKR : koff is 0.000318
